- protocol: Inhibition of [3H]gabapentin binding to pig brain membranes
- Set-up: species or system Sus scrofa, Membrane
pIC50: −log10 of the molar value.
Give Y when the value for pIC50 is at least 6. Give N when it is less.

compound: NCC1(CC(=O)O)CCCCC1
class.label: Y
//
compound: CC(C)C[C@@H](CC(=O)O)[C@@H](C)N
class.label: Y
//
compound: CC(C)C[C@@H](CC(=O)O)[C@H](C)N
class.label: Y
//
compound: CC(C)[C@@H](C)[C@H](CN)CC(=O)O
class.label: Y
//
compound: CC(C)C[C@@H](CCN)C(=O)O
class.label: N
//
compound: CCC(CC)C(CN)CC(=O)O (stereo unspecified)
class.label: Y
//
compound: CCC(CN)(CC(=O)O)CC(C)C (stereo unspecified)
class.label: N

Would you kindly look at the next entry?
INPUT: For this compound, is measured pIC50 6 or higher? CC(C)C[C@H](CN)[C@H](C)C(=O)O
OUTPUT: N

###

- protocol: Inhibition of [3H]leucine uptake into CHO cells by L-amino acid transporters
- Type: functional, cell-based
- assay.context: Cricetulus griseus
Please go through the items and note down their pIC50.
Numbers only, as −log10 of the molar value.

Example molecules with recorded pIC50:
molecule: CC(C)[C@H](C)[C@H](CN)CC(=O)O
pIC50: 4.55
//
molecule: NCC1(CC(=O)O)CCCCC1
pIC50: 4.52
//
molecule: CC(C)[C@@H](C)[C@H](CN)CC(=O)O
pIC50: 3.80
//
molecule: CCC(CN)(CC(=O)O)CC(C)C (configuration not stated)
pIC50: 4.22

INPUT: Entry under review: CC(C)CC(C)(CN)CC(=O)O (configuration not stated) . Reported pIC50?
OUTPUT: 4.05

###

- protocol: Inhibition of [3H]gabapentin binding to pig brain membranes
- Parameters: species or system Sus scrofa, Membrane
recorded.endpoint: pIC50
Give bare numbers, as −log10 of the molar value.

# annotated cases, reported pIC50 shown
compound: CCCC[C@@H](CC(=O)O)[C@@H](C)N
pIC50: 5.99
--
compound: CCC(CC)CC(CN)CC(=O)O (stereo not drawn)
pIC50: 5.88

Lab note: next compound to report on.
INPUT: For the compound CCC[C@@H](CC(=O)O)[C@@H](C)N , what pIC50 is on record?
OUTPUT: 5.89

Reference source for all entries: ChEMBL document CHEMBL1143562
